Listed here: items and their measured protein stability index.
B1: ZNF449 (parent)
chain: EPHKCPECGKRFLRSSDLYRHQRL

Variants of: B1
Test: protein stability index of a GFP-peptide fusion (GPS, HEK-293T) (PSI 1-6); higher = more stable;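 also: lentivirally expressed fusions sorted by FACS into six bins by GFP to DsRed ratio, PSI derived from sequencing read proportions per bin multiplied by bin number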
Settings: c terminus: a fixed tail appended
Form: value (number only, do not type unit).

K10H 3.15

Name the recorded protein stability index of the item R14N in your answer.
4.78

Name the recorded protein stability index of the item R11K in your answer.
4.16

Name the recorded protein stability index of the item L18W in your answer.
3.37

Name the recorded protein stability index of the item Q22Y in your answer.
3.44

Name the recorded protein stability index of the item E7H in your answer.
3.65

Name the recorded protein stability index of the item P6K in your answer.
3.62

Name the recorded protein stability index of the item S16F in your answer.
2.09

Name the recorded protein stability index of the item D17W in your answer.
1.72

Name the recorded protein stability index of the item Y19L in your answer.
4.04

Name the recorded protein stability index of the item L24P in your answer.
3.85

Name the recorded protein stability index of the item C8M in your answer.
3.05

Name the recorded protein stability index of the item R20H in your answer.
4.14

Name the recorded protein stability index of the item Y19I in your answer.
3.86

Name the recorded protein stability index of the item C8P in your answer.
3.51

Name the recorded protein stability index of the item Q22H in your answer.
3.27

Name the recorded protein stability index of the item P2I in your answer.
3.18

Name the recorded protein stability index of the item K10I in your answer.
3.32

Name the recorded protein stability index of the item R14S in your answer.
4.61

Name the recorded protein stability index of the item P2H in your answer.
3.95

Name the recorded protein stability index of the item Y19W in your answer.
2.86

Name the recorded protein stability index of the item L24T in your answer.
4.06

Name the recorded protein stability index of the item C5N in your answer.
3.41
